molecular target: human ADRA2C receptor (Homo sapiens (Human)); experiment: In vitro activity assay to determine the inhibition of recombinant ADRA2C (CHO-K1 cells, aequorin bioluminescence); assay type: cell-based; settings: inhibition of noradrenaline-induced bioluminescence signal; some mean values from multiple determinations; read-out: ARα2C IC50
Sequence (P18825 whole entry): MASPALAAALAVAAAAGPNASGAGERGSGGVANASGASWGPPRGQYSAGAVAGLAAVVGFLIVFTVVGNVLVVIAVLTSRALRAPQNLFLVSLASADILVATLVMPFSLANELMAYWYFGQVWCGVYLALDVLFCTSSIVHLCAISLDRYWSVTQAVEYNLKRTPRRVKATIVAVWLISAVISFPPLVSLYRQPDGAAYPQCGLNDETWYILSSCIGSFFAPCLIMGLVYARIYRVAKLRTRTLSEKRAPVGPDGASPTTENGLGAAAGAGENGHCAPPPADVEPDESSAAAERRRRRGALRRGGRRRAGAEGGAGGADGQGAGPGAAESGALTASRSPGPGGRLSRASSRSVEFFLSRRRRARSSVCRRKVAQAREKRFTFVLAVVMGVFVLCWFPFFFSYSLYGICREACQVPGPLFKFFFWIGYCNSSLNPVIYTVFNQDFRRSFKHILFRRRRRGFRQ
pIC50: −log10 of the molar value.
measuredParameter: pIC50

Known pIC50 results, listed for orientation:
compound: C[C@@H]1CCCN(C2CCN(c3ncc(C(=O)NCc4ncc(F)cc4F)s3)CC2F)C1 (single isomer, unassigned) [Example 51]
pIC50: 6.82
//
compound: O=C(NCc1ncc(F)cc1F)c1cnc(N2CCC(N3CCCC(OC4CC(F)(F)C4)C3)CC2)s1 (racemic)
pIC50: 8.82

A = C[C@@H]1CCCN(C2CCN(c3ncc(C(=O)NCc4ccncc4F)s3)CC2)C1
B = O=C(NCc1ncc(F)cc1F)c1cnc(N2CCC(N3CCCC(c4ccccc4)C3)CC2)s1 (racemic)
C = C[C@@H]1CCCN(C2CCN(c3ncc(C(=O)NCc4cccc(Cl)c4)s3)CC2)C1
**Q:** Rank descending by pIC50. Sort and list the labels as requested.
**A:** B, C, A
